# System Name: Beta-1 adrenergic receptor (Homo sapiens, UniProt P08588)
# Sequence (P08588 whole entry): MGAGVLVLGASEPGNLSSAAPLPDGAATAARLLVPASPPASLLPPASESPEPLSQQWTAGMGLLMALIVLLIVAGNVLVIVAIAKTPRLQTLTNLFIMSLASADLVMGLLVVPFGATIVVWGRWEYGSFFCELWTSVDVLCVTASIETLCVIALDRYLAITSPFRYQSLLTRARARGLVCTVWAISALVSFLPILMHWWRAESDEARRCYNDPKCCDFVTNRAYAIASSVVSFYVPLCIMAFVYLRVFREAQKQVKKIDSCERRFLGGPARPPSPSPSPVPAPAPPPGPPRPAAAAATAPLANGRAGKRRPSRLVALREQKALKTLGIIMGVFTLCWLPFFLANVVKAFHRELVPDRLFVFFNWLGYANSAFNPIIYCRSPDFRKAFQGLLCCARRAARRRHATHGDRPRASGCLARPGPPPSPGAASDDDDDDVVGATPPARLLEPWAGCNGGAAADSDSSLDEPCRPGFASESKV
# Protocol: Displacement of [125I]CYP from human adrenergic beta 1 receptor transfected in CHO cells in presence of 100 uM GTP
A collection of molecules and their measured pKi
Field pKi (float): negative decimal logarithm of the concentration in molar.

CCCCOc1ccc(C[C@@H](C)NC[C@@H](O)c2cc(Br)no2)cc1 ... 5.67
C[C@H](Cc1ccc(OCC(=O)O)cc1)NC[C@H](O)c1cc(Br)no1 ... 7.21
C[C@H](Cc1ccc(OCC(=O)O)cc1)NC[C@@H](O)c1cc(Br)no1 ... 5.19

Observed pKi on Beta-1 adrenergic receptor (Homo sapiens, UniProt P08588) for `CCCCOc1ccc(C[C@@H](C)NC[C@H](O)c2cc(Br)no2)cc1` , please.
7.18

Observed pKi on Beta-1 adrenergic receptor (Homo sapiens, UniProt P08588) for `CCOC(=O)COc1ccc(C[C@@H](C)NC[C@@H](O)c2cc(Br)no2)cc1` , please.
5.95

Observed pKi on Beta-1 adrenergic receptor (Homo sapiens, UniProt P08588) for `CCOC(=O)COc1ccc(C[C@@H](C)NC[C@H](O)c2cc(Br)no2)cc1` , please.
7.63
